Experiment: inhibition of PAO1 biofilm formation – strain PAO1, LB-PBS medium, absorbance 600 nm, primary screen (AID 1176); note: test concentration not given here
Details: P. aeruginosa PAO1 growth/biofilm, A600, 12 h; higher = more signal
Each entry gets -1 if its z-score stays under -0.2, and 1 if its z-score is -0.2 or above.

Solved entries:
O=C1N(CCS(=O)(=O)c2ccccc2)c2ccccc2C[C@]12N=C(c1ccc(OCCCO)cc1)O[C@@H]2c1ccccc1 | 1
COC(=O)C(CC#Cc1ccc2c(c1)[C@]1(C(=O)N2)[C@H](C(=O)N2CCc3cc(OC)c(OC)cc3C2)[C@H]2C(=O)O[C@H](c3ccccc3)[C@H](c3ccccc3)N2[C@@H]1c1ccccc1OCCO)C(=O)OC | 1
COc1ccc([Si](C)(C)[C@H]2[C@H](CC(=O)N3Cc4ccccc4C[C@H]3CO)O[C@@]3(C(=O)N(C)c4ccccc43)[C@@H]2C)cc1 | -1
CN(C)C(=O)[C@]1(Cc2ccccc2)N=C(c2ccc(OCCCO)cc2)O[C@@H]1c1ccccc1CN=[N+]=[N-] | -1
[N-]=[N+]=Nc1ccccc1[C@@H]1OC(c2ccc(OCCCO)cc2)=N[C@]1(Cc1ccccc1)C(=O)NCCN1CCOCC1 | -1

Task: Form field: z-score at least -0.2? Entry: `C[N+](C)(C)CCCCNC(=O)[C@H]1C[C@H]2C(=O)N[C@@H](Cc3ccccc3)C(=O)N2[C@H]1c1cccc(OCCO)c1`
Output: 1

Attribution: PubChem BioAssay
